- target under test: binding of FAM19A5 protein to full-length ectodomain of the LRRC4B protein (amino acids 36-576 of SEQ ID NO: 2) (Homo sapiens)
- Sequence (Q7Z5A7 44-132): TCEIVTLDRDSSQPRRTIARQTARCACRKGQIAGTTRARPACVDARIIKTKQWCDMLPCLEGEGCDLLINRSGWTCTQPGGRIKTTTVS
- assay name: Competitive inhibition assay, plate coated with full-length ectodomain of LRRC4B (amino acids 36-576)
- test conditions: Table 9; deletion variants; 20 nM peptide; FAM19A5 5 ng/ml
Listed below: Inhibition rate (%) LRRC4B (amino acids 36-576)-hFc values for each entry.
// units = %; emit number, no label

Example sequences with recorded Inhibition rate (%) LRRC4B (amino acids 36-576)-hFc:
[
  {
    "residues": "KNYTYFTTVTVNKETQ [FB-m9dC]",
    "quantitative result": 16.8
  },
  {
    "residues": "KNYFTTVTVETNKETQ [FB-m9dN]",
    "quantitative result": 2.5
  },
  {
    "residues": "KNYTYFTTVTNKETQ [FB-m8dC]",
    "quantitative result": 5.1
  },
  {
    "residues": "KNYTYFTTNKETQ [FB-m6dC]",
    "quantitative result": 14.9
  },
  {
    "residues": "KNFTTVTVETNKETQ [FB-m8dN]",
    "quantitative result": 3.3
  },
  {
    "residues": "GYTYFTTVTVETLETQPGEE [FB-20]",
    "quantitative result": 84.3
  },
  {
    "residues": "KNTTVTVETNKETQ [FB-m7dN]",
    "quantitative result": 2.0
  },
  {
    "residues": "KNTYFTTVTVETNKETQ [FB-m10dN]",
    "quantitative result": 7.7
  }
]

// query Look up Inhibition rate (%) LRRC4B (amino acids 36-576)-hFc: KNYTYFTTVTVETNKETQ [FB-m11dC]
// result 65.0

// query For KNYTYFTTVNKETQ [FB-m7dC] then?
// result 4.4

// query Moving on to the next sequence: KNYTYFTTVTVENKETQ [FB-m10dC]
// result 62.0

From: patent US20240238445A1
